System: proteins that co-immunoprecipitated with DUX4-CTD constructs expressed in MB135 myoblasts
test name: LC-MS of proteins co-immunoprecipitated with DUX4-CTD (Table 1) and western validation
Type: binding, human
Parameters: key: peptide-spectrum matches (PSMs) per protein
assay setup: LC-MS counts of the listed protein co-immunoprecipitated with DUX4-CTD bait longCTD; experiment 4, Dox + IFNG
outcome measure: 4. longCTD + Dox + IFNG

molecule: P04899 (protein, UniProt P04899 1-355, looked up, full-length) MGCTVSAEDKAAAERSKMIDKNLREDGEKAAREVKLLLLGAGESGKSTIVKQMKIIHEDGYSEEECRQYRAVVYSNTIQSIMAIVKAMGNLQIDFADPSRADDARQLFALSCTAEEQGVLPDDLSGVIRRLWADHGVQACFGRSREYQLNDSAAYYLNDLERIAQSDYIPTQQDVLRTRVKTTGIVETHFTFKDLHFKMFDVGGQRSERKKWIHCFEGVTAIIFCVALSAYDLVLAEDEEMNRMHESMKLFDSICNNKWFTDTSIILFLNKKDLFEEKITHSPLTICFPEYTGANKYDEAASYIQSKFEDLNKRKDTKEIYTHFTCATDTKNVQFVFDAVTDVIIKNNLKDCGLF
endpoint value: 11
--
molecule: P11802 (protein, UniProt P11802 1-303, looked up, full-length) MATSRYEPVAEIGVGAYGTVYKARDPHSGHFVALKSVRVPNGGGGGGGLPISTVREVALLRRLEAFEHPNVVRLMDVCATSRTDREIKVTLVFEHVDQDLRTYLDKAPPPGLPAETIKDLMRQFLRGLDFLHANCIVHRDLKPENILVTSGGTVKLADFGLARIYSYQMALTPVVVTLWYRAPEVLLQSTYATPVDMWSVGCIFAEMFRRKPLFCGNSEADQLGKIFDLIGLPPEDDWPRDVSLPRGAFPPRGPRPVQSVVPEMEESGAQLLLEMLTFNPHKRISAFRALQHSYLHKDEGNPE
endpoint value: 11
